# Test system: intestinal alkaline phosphatase [Mus musculus]
# PROTOCOL TEXT: mouse intestinal phosphatase enzyme activation – biochemical, luminescence, single concentration, confirmation (AID 434970)
# MEASUREMENT CONDITIONS: purified mouse IAP, CDP-Star luminescence, 30 min, at 10 µM; hits give low values
The campaign covered roughly 11,000 compounds. About 310 (2.8%) were called active. This excerpt belongs to a sample that is enriched for actives.
Recorded activity change, negative = activation by entry
Reply numerically in %, unit not repeated.

The following compounds have reported results that may help.
INPUT SMILES: S=C(NCc1ccc(Cl)cc1Cl)NC1CCCCC1
TARGET OF ASSAY: intestinal alkaline phosphatase [Mus musculus]
activity change, negative = activation [%]: -93
//
INPUT SMILES: COc1ccccc1NS(=O)(=O)c1cc(NC(=O)Nc2cccc(C)c2)ccc1N1CCCCC1
TARGET OF ASSAY: intestinal alkaline phosphatase [Mus musculus]
activity change, negative = activation [%]: -278

Entry Cc1ccc(N2C(=O)c3ccc(C(=O)Nc4cccnc4)cc3C2=O)c(C)c1 : reported activity change, negative = activation = ?
5.45

Entry O=C(CN1CCN(Cc2ccccc2Cl)C1=O)NCc1ccco1 : reported activity change, negative = activation = ?
6.45

Entry S=C(NCc1ccc(Cl)cc1Cl)Nc1ccccc1 : reported activity change, negative = activation = ?
-41

Entry O=C(O)CCSc1nc(C(F)(F)F)cc(=O)n1-c1ccccc1 : reported activity change, negative = activation = ?
-1

Entry Cc1cc(C)nc(-n2nc(C)c3c(C(F)(F)F)cc(=O)[nH]c32)n1 : reported activity change, negative = activation = ?
-2.7

Entry S=C(NCc1cccc(Cl)c1)NC1CCCCC1 : reported activity change, negative = activation = ?
-14.3

Entry O=C(NCCc1ccc(F)cc1)N1CCOCC1 : reported activity change, negative = activation = ?
-0.6

Entry COc1ccc2c(CC(=O)OCC(=O)N3CCc4ccccc43)coc2c1 : reported activity change, negative = activation = ?
6.5

Entry COc1ccc(C(=O)O)cc1S(=O)(=O)Nc1cccc(C)c1 : reported activity change, negative = activation = ?
1.25
